Molecular target: hGALK1 (Homo sapiens, UniProt P51570, E253A/K252A)
Construct: A hGALK1 construct, encoding full-length protein harboring the surface entropy[41] mutations K252A:E253A; His6 (N); made in house; host or cells: E. coli BL21(DE3)
Experiment: Kinase-Glo luminescent hGALK1 activity assay
Assay type: biochemical
Conditions: biological replicate N1; read-out: Kinase-Glo N1 IC50

{"Compound": "O=C(CNc1cnc2cc(Cl)c(Cl)cc2n1)NC1CC1 [compound 11]", "System Under Test": "hGALK1 (Homo sapiens, UniProt P51570, E253A/K252A)", "IC50 / µM": 209}
{"Compound": "COCCNC(=O)CNc1cnc2cc(Cl)c(Cl)cc2n1 [compound 12]", "System Under Test": "hGALK1 (Homo sapiens, UniProt P51570, E253A/K252A)", "IC50 / µM": 198}

---

Molecular target: hGALK1 (Homo sapiens, UniProt P51570, E253A/K252A)
Construct: A hGALK1 construct, encoding full-length protein harboring the surface entropy[41] mutations K252A:E253A; His6 (N); made in house; host or cells: E. coli BL21(DE3)
Assay: Amplex Red fluorescence-based hGALK1 activity assay (coupled with galactose oxidase)
Assay type: biochemical
Details: 50 μM galactose, 0–250 μM ATP; best-fit model in GraphPad Prism
Reported Property: mode of inhibition with respect to ATP

{"Query Smiles": "O=C(CNc1cnc2cc(Cl)c(Cl)cc2n1)NC1CC1", "Reported Property": "mode of inhibition with respect to ATP", "Observed": "noncompetitive"}
{"Query Smiles": "COc1ccc(Cl)cc1C(=O)NC1CCN(c2ncccn2)CC1", "Reported Property": "mode of inhibition with respect to ATP", "Observed": "noncompetitive"}
{"Query Smiles": "COCCNC(=O)CNc1cnc2cc(Cl)c(Cl)cc2n1", "Reported Property": "mode of inhibition with respect to ATP", "Observed": "noncompetitive"}

---

Target: T1, hGALK1 (Homo sapiens, UniProt P51570, E253A/K252A)
T1 construct: A hGALK1 construct, encoding full-length protein harboring the surface entropy[41] mutations K252A:E253A; His6 (N); made in house; host or cells: E. coli BL21(DE3)
T1 sequence (P51570 whole entry K252A/E253A): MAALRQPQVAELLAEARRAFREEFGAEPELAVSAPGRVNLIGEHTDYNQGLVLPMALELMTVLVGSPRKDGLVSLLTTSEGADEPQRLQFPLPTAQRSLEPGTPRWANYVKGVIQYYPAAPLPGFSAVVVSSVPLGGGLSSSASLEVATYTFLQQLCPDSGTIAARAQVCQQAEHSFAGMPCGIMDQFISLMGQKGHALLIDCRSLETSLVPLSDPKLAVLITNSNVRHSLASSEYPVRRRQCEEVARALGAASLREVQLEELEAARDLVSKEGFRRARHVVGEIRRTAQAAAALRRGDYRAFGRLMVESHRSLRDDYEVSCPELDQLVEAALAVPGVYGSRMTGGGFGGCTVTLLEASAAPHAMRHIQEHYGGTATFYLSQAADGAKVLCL
Assay: Amplex Red fluorescence-based hGALK1 activity assay (coupled with galactose oxidase)
Type: biochemical
Parameters: unit not given here
Conditions: 50 µM galactose; maximum tested concentration: 1 mM T1, 15 mM fragment 3, 2 mM 11–13
# reported Kmapp, substrate ATP, with ligand (+); entries follow

{"Molecule": "O=C(CNc1cnc2cc(Cl)c(Cl)cc2n1)NC1CC1", "Kmapp, substrate ATP, with ligand (+)": 36.5}
{"Molecule": "O=C(Cc1ccc(Cl)cc1)Nc1ncccn1", "Kmapp, substrate ATP, with ligand (+)": 32.1}
{"Molecule": "COc1ccc(Cl)cc1C(=O)NC1CCN(c2ncccn2)CC1", "Kmapp, substrate ATP, with ligand (+)": 46.5}
{"Molecule": "O=C1CCCC2=C1C1(CCCC1)N=C(Nc1nc3ccccc3o1)N2 [T1, reference compound]", "Kmapp, substrate ATP, with ligand (+)": 63.5}
{"Molecule": "COCCNC(=O)CNc1cnc2cc(Cl)c(Cl)cc2n1", "Kmapp, substrate ATP, with ligand (+)": 40.4}
